For each record, write down the corresponding FI (fluorescence index).
biological target: T1, HLA-A0201 on the surface of T2 cells (human); experiment: T2 cell peptide loading, flow cytometry with anti-HLA-A*02:01 FITC antibody, peptide 100 uM
T1 construct: MHC class I molecule on T2 cells; surface HLA-A*02:01 was read with an anti-HLA-A*02:01 FITC monoclonal antibody after overnight loading with peptide
# respond with the number and nothing more

# input Which measured FI (fluorescence index) value corresponds to TLAFLIFNI (Made by solid phase synthesis, purity >90% by HPLC) [mutant polypeptide TLAFLIFNI (SEQ ID NO: 1)] ?
# output 1.6

# input Which measured FI (fluorescence index) value corresponds to PLAFLIFNI (Made by solid phase synthesis) [wild-type polypeptide PLAFLIFNI (SEQ ID NO: 7)] ?
# output 1.63

# input Which measured FI (fluorescence index) value corresponds to TLAFLIFNV (Made by solid phase synthesis) [mutant polypeptide's variant TLAFLIFNV (SEQ ID NO: 3)] ?
# output 1.51

# input Which measured FI (fluorescence index) value corresponds to TMAFLIFNL (Made by solid phase synthesis) [mutant polypeptide's variant TMAFLIFNL (SEQ ID NO: 5)] ?
# output 1.79

# input Which measured FI (fluorescence index) value corresponds to TLAFLIFNL (Made by solid phase synthesis) [mutant polypeptide's variant TLAFLIFNL (SEQ ID NO: 4)] ?
# output 1.49

# input Which measured FI (fluorescence index) value corresponds to TMAFLIFNI (Made by solid phase synthesis) [mutant polypeptide's variant TMAFLIFNI (SEQ ID NO: 2)] ?
# output 1.67

# input Which measured FI (fluorescence index) value corresponds to TMAFLIFNV (Made by solid phase synthesis) [mutant polypeptide's variant TMAFLIFNV (SEQ ID NO: 6)] ?
# output 1.74
